measured target: αvβ1 (Homo sapiens, UniProt P05556+P06756)
Sequence (P06756 31-992 limits assumed): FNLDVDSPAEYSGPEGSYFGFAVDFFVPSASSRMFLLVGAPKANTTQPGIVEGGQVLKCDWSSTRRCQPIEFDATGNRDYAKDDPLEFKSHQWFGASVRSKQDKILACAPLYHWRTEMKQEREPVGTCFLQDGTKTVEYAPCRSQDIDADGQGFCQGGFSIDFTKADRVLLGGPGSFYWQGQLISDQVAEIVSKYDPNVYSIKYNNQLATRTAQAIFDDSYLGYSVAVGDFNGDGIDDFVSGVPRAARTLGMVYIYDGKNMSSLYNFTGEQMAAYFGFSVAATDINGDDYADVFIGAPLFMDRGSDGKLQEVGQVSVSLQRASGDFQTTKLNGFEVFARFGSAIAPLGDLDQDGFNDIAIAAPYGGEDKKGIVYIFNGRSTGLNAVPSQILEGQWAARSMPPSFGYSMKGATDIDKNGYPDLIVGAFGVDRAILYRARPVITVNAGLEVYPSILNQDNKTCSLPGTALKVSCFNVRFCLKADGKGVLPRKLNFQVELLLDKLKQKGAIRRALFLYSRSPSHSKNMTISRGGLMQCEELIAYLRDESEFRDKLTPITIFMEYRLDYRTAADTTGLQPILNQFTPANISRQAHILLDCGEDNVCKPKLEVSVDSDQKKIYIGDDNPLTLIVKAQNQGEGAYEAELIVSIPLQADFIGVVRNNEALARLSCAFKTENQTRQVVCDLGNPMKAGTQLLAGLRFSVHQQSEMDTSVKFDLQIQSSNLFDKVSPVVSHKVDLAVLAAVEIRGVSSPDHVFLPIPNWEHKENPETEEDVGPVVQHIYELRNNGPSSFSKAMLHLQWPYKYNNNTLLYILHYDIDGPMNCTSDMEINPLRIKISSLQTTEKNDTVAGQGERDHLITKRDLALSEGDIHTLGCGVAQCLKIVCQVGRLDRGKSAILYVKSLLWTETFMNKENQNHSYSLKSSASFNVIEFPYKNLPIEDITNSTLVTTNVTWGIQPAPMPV
Sequence (P05556 21-728 limits assumed): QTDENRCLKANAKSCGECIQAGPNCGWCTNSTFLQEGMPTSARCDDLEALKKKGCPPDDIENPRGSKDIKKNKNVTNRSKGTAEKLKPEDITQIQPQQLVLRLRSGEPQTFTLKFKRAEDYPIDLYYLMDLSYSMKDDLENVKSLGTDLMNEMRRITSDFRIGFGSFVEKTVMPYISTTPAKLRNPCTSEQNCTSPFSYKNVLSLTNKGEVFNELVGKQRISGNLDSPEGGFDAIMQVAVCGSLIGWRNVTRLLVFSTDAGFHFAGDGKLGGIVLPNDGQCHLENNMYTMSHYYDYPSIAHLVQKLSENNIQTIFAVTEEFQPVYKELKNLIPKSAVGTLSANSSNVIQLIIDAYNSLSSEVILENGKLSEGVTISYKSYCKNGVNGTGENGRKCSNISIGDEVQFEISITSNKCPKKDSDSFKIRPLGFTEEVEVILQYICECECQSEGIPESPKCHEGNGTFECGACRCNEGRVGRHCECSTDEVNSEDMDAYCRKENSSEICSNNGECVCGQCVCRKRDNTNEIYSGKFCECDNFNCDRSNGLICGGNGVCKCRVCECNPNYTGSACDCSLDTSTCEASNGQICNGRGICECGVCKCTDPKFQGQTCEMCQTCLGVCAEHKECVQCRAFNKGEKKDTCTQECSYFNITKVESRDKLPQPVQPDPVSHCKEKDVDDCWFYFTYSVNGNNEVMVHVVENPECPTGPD
assay details: Solid Phase Integrin αvβ1 Assay
Counter-ions that a name gives are not always drawn.
Listed here: items and their measured IC50.

Worked cases, IC50 given:
| compound | IC50 |
| --- | --- |
| O=C(O)CC(CO[C@H]1CCCN(CCCc2ccc3c(n2)NCCC3)C1)c1ccccc1 (stereo partly shown) | 0.1 to 1 µM |
| O=C(O)[C@H](CCO[C@@H]1CCCN(CCCc2ccc3c(n2)NCCC3)C1)Nc1ncnc2sccc12 | > 1 µM |
| CC1(C)CN(c2cccc([C@H](CC(=O)O)NC(=O)[C@@H]3CCCN(CCCc4ccc5c(n4)NCCC5)C3)c2)CC(C)(C)O1 | < 0.1 µM |

Return value of IC50 for input O=C(O)C[C@H](NC(=O)[C@@H]1CCCN(CCCc2ccc3c(n2)NCCC3)C1)c1cccc(N2CC3CCC2CO3)c1 (single isomer, unassigned) [Compound 241-B] , no commentary. < 0.1 µM

Return value of IC50 for input "O=C(N[C@@H](CNC(=O)[C@@H]1CCCN(CCCc2ccc3c(n2)NCCC3)C1)C(=O)O)C1CCC(F)(F)CC1" , no commentary. < 0.1 µM

Return value of IC50 for input "O=C(NC[C@H](C(=O)O)c1cccc(Br)c1)[C@@H]1CCCN(CCCc2ccc3c(n2)NCCC3)C1" , no commentary. < 0.1 µM

Return value of IC50 for input O=C(O)C(CNC(=O)[C@@H]1CCCN(CCCc2ccc3c(n2)NCCC3)C1)c1cccc(Br)c1 (stereo partly shown) [Compound 255, hydrochloride] , no commentary. < 0.1 µM

* * *

measured target: αvβ1 (Homo sapiens, UniProt P05556+P06756)
assay details: Solid Phase Integrin αvβ1 Assay
Protocol: The compounds exemplified in this document were tested for their ability to inhibit αvβ1 and αvβ6 in below described solid phase integrin assays. Solid Phase Integrin αvβ1 Assay 96-well microtiter plates (4 HBX Immulon; Thermo Fisher Scientific, Waltham, MA) were coated with 100 μL/well of 1 μg/mL recombinant TGFb1-LAP in TBS at 4° C., overnight. […] Bound protein was detected using the substrate TMB. […]
pIC50: −log10 of the molar value. Counter-ions that a name gives are not always drawn.
recorded metric: pIC50

| compound | measured target | pIC50 |
| --- | --- | --- |
| CC1(C)CN(c2cccc([C@H](CO[C@@H]3CCCN(CCCc4ccc5c(n4)NCCC5)C3)CC(=O)O)c2)CCO1 [Compound 569] | αvβ1 (Homo sapiens, UniProt P05556+P06756) | 6.00 to 7.00 |

Return value of pIC50 for input O=C(O)CC(CO[C@@H]1CCCN(CCCc2ccc3c(n2)NCCC3)C1)c1ccccc1 (stereo partly shown) [Compound 297, hydrochloride] , no commentary. > 7.00

Return value of pIC50 for input CC(C)(C(=O)N[C@@H](CNC(=O)[C@@H]1CCCN(CCCc2ccc3c(n2)NCCC3)C1)C(=O)O)c1ccccc1 [Compound 546] , no commentary. > 7.00

Return value of pIC50 for input O=C(O)[C@H](CCO[C@H]1CCCN(CCCc2ccc3c(n2)NCCC3)C1)Nc1ncnc2ccccc12 [Compound 446] , no commentary. 6.00 to 7.00

Return value of pIC50 for input O=C(CC[C@H](NC(=O)[C@H]1CCCN1S(=O)(=O)c1ccccc1)C(=O)O)N[C@H]1CCN(C(=O)CCCc2ccc3c(n2)NCCC3)C1 [Compound 438] , no commentary. > 7.00

Return value of pIC50 for input O=C(O)C[C@H](NC(=O)[C@@H]1CCCN(CCCc2ccc3c(n2)NCCC3)C1)c1ccc2c(c1)OCC2 [Compound 613] , no commentary. > 7.00

Return value of pIC50 for input O=C(O)C[C@H](NC(=O)[C@@H]1CCCN(CCCc2ccc3c(n2)NCCC3)C1)c1ccc(C2CC2)cc1 [Compound 557] , no commentary. < 6.00

Return value of pIC50 for input O=C(O)C[C@@H](CO[C@@H]1CCCN(CCc2ccc3c(n2)NCCC3)C1)c1ccccc1 [Compound 354] , no commentary. < 6.00

Return value of pIC50 for input O=C(O)[C@](O)(CO[C@@H]1CCCN(CCCc2ccc3c(n2)NCCC3)C1)c1ccccc1 [Compound 452] , no commentary. < 6.00

Return value of pIC50 for input Cc1cc(C(F)(F)F)nn1-c1cccc([C@@H](CO[C@@H]2CCCN(CCCc3ccc4c(n3)NCCC4)C2)CC(=O)O)c1 [Compound 576] , no commentary. > 7.00
